Give measured fold change of Putrescine concentration for each item. Keep answers brief.
System: Escherichia coli IAI1
experiment-summary: fold change of Putrescine concentration vs plate DMSO controls (fold change (ratio)); higher = more amine produced, active = hit call of the paper (significant change in both replicates, either direction)
assay-setup: 20 µM; incubation time: 27 h, anaerobic, 37 °C
Where a name gives a salt, the structure may show the parent alone.
Answers are plain numbers.

Look over these answered cases.
CC(=NC#N)N(C)Cc1ccc(Cl)nc1; 1.02
CN(C)[C@@H]1C(=O)C(C(N)=O)=C(O)[C@@]2(O)C(=O)C3=C(O)c4c(O)cccc4[C@@](C)(O)[C@H]3[C@H](O)[C@@H]12 [Oxytetracycline dihydrate]; 0.279
CCCC(C)(COC(N)=O)COC(=O)NC(C)C (stereo not given); 1.02
CN(C)[C@@H]1C(=O)C(C(N)=O)=C(O)[C@@]2(O)C(=O)C3=C(O)c4c(O)ccc(Cl)c4[C@@](C)(O)[C@H]3C[C@@H]12 [Chlortetracycline hydrochloride]; 0.253

Report fold change of Putrescine concentration for each item below.
1. C[C@H](N)[C@H](O)c1ccc(O)c(O)c1
2. CCC(C)(c1ccc(O)cc1)c1ccc(O)cc1
3. C[N+]1(C)[C@@H]2CC[C@H]1C[C@@H](OC(=O)C(CO)c1ccccc1)C2 (stereo not given in full) [Methylatropine nitrate]
4. C[N+]1(C)CCCCC1
5. C[C@]12COC(=O)C[C@@H]1CC[C@@H]1[C@@H]2CC[C@@]2(C)[C@H]1CC[C@]2(C)O

Resp:
1: 0.904; 2: 0.976; 3: 0.932; 4: 1; 5: 0.974

* * *

Test system: Clostridium sporogenes DSM 1664
experiment-summary: growth (OD595) fold change vs plate DMSO controls (fold change (ratio)); higher = more growth
assay-setup: 20 µM; incubation time: 27 h, anaerobic, 37 °C
Counter-ions that a name gives are not always drawn.
result-type: growth
One number for each entry.

Look over these answered cases.
COc1ccc(C(=CC(=O)N2CCOCC2)c2ccc(Cl)cc2)cc1OC (mixture of isomers); 1.18
COc1ncc(F)c2nc(S(=O)(=O)Nc3c(F)cccc3F)nn12; 1.08
COc1cc(OC)nc(NC(=O)NS(=O)(=O)c2ncccc2C(=O)N(C)C)n1; 1.19
CCC(C)(c1ccc(O)cc1)c1ccc(O)cc1; 1.05
C[C@]12COC(=O)C[C@@H]1CC[C@@H]1[C@@H]2CC[C@@]2(C)[C@H]1CC[C@]2(C)O; 0.947
COP(=O)(NC(C)=O)SC (centres undefined); 1.04
Oc1ccc(C(c2ccc(O)cc2)(C(F)(F)F)C(F)(F)F)cc1; 1.04
CCCN1C[C@H](CSC)C[C@@H]2c3cccc4[nH]cc(c34)C[C@H]21 [Pergolide mesylate]; 0.995

Now for a further molecule.
Req: Which growth reading was recorded for the molecule CC(C)(C)NCC(O)c1ccccc1Cl (centres undefined) [Tulobuterol Hydrochloride] ?
Resp: 0.953

* * *

Test system: Ruminococcus gnavus DSM 108212
experiment-summary: fold change of 2-Phenylethylamine concentration vs plate DMSO controls (fold change (ratio)); higher = more amine produced, active = hit call of the paper (significant change in both replicates, either direction)
assay-setup: 20 µM; incubation time: 27 h, anaerobic, 37 °C
Counter-ions that a name gives are not always drawn.
result-type: fold change of 2-Phenylethylamine concentration

Look over these answered cases.
NC(=O)C[S+]([O-])C(c1ccccc1)c1ccccc1 (stereo unspecified); 1.06 (inactive)
Cc1cccc(C)c1NC(=O)CN1CCCC1=O; 1.01 (inactive)
CC(=O)OCC1=C(C(=O)O)N2C(=O)[C@@H](N)[C@H]2SC1; 0.942 (inactive)
CN(C)[C@@H]1C(=O)C(C(N)=O)=C(O)[C@@]2(O)C(=O)C3=C(O)c4c(O)cccc4[C@@](C)(O)[C@H]3[C@H](O)[C@@H]12 [Oxytetracycline dihydrate]; 0.92 (inactive)

Report fold change of 2-Phenylethylamine concentration for each item below.
1. CC(C)(C)NCC(O)c1ccccc1Cl (stereo unspecified) [Tulobuterol hydrochloride]
2. COCC(=O)N(c1c(C)cccc1C)[C@H](C)C(=O)OC
3. C[C@]12COC(=O)C[C@@H]1CC[C@@H]1[C@@H]2CC[C@@]2(C)[C@H]1CC[C@]2(C)O
4. Cc1cccc2sc3nncn3c12
5. CO/C=C(/C(=O)OC)c1ccccc1Oc1cc(Oc2ccccc2C#N)ncn1
6. CNCC(O)c1ccc(O)cc1 (stereo unspecified) [Synephrine]
7. CC[N+]1(C)CCCC(OC(=O)C(O)(c2ccccc2)c2ccccc2)C1 (stereo unspecified) [Pipenzolate bromide]
8. C=C1CC[C@@]2(O)[C@H]3Cc4ccc(O)c5c4[C@@]2(CCN3CC2CC2)[C@H]1O5 [Nalmefene hydrochloride]

Resp:
1: 0.653 (inactive); 2: 1.05 (inactive); 3: 1.06 (inactive); 4: 0.992 (inactive); 5: 1.01 (inactive); 6: 1.09 (inactive); 7: 0.926 (inactive); 8: 0.578 (inactive)

Report fold change of 2-Phenylethylamine concentration for each item below.
1. CC1COC(Cn2cncn2)(c2ccc(Oc3ccc(Cl)cc3)cc2Cl)O1 (stereo unspecified)
2. O=C(NC(=O)c1c(F)cccc1F)Nc1ccc(OC(F)(F)C(F)OC(F)(F)F)c(Cl)c1 (stereo unspecified)
3. CCC1(c2cccc(O)c2)CCCCN(C)C1 (stereo unspecified) [Meptazinol hydrochloride]

Resp:
["0.954 (inactive)", "0.957 (inactive)", "0.997 (inactive)"]
